Recorded values, source PubChem BioAssay (NCI).

- System: PC-3 prostate
- assay: NCI tumour cell line growth inhibition, 48 h
Reported TGI by item:
Only the number, expressed in µM, is required.

| smiles_representation | target_of_assay | unit_tag | TGI |
| --- | --- | --- | --- |
| COc1cc2cc(Oc3ccc(NC(=O)Nc4cc(C(F)(F)F)cc(C(F)(F)F)c4)cc3)c(C)nc2cc1OCCN1CCOCC1 | PC-3 prostate | µM | 5.16 |

Look up TGI: COc1cnc2c(c1)C(=O)c1c-2n(CCCNC2=NCCS2)c(=O)c2cc(F)ccc12
18.7

---

- Test system: ACHN renal
- assay: NCI tumour cell line growth inhibition, 48 h
Reported TGI by item:

Below, 4 compounds whose answers are already recorded.
| compound | test_value |
| --- | --- |
| COc1ccc(C(O)c2cc3c(N)c(C(=O)Nc4ccc(Cl)cc4)sc3nc2C)cc1 (stereo not given) | 15.7 µM |
| CS(=O)(=O)N1CC(CCl)c2ccc(NO)cc21 (stereo not given) | 21 µM |
| CC(CSC(=N)N)C(N)=O (stereo not given) | > 100 µM |
| CC(C)Oc1c(C2(c3ccccc3)SCCCS2)c(=O)c1=O | > 100 µM |

With those in mind, consider the next compound.
Look up TGI: O=C1c2ccccc2C(=O)c2cc3c(cc21)CS(=O)C3
> 100 µM
